Just for reference, patent US20200087363A1 is where these values come from.

// reported peptide exchange yield per item
# system_tested: T1, HLA-B*44:05 (human)
# T1 construct: also called peptide-receptive MHC class I molecule
# protocol_description: UV peptide exchange, anti-b2m ELISA

Recorded peptide exchange yield, per entry:
AEVQIARKL :: 50 to 75%
AECILSKRL :: 50 to 75%
QELSSIRQF :: 50 to 75%

get_value(item= VEAQDRETW , readout=peptide exchange yield) returns 20 to 50%
